# maps each entry to its fold change in EC50, HIV-HXB2D V38A mutant
- target.of.assay: gp41 of HIV-1 strain HXB2D with mutation V38A (HIV-1 strain HXB2D, UniProt P04578)
- protocol.text: cell-based or functional assay
Starred links: 1 amine or outer side, 2 acyl side, 3 side chain; linkers in the order of their positions; H or OH if unused. Positions of bridges follow the written chain, without caps; N, C: chain ends. Non-standard residues stand in square brackets, D forms with d. Suc = O=C(CCC(=O)[*:2])[*:1]; B1 = not defined here
Dear colleague, please return just the value in fold, with no unit written.

Some entries whose results are on file:
Reported fold change in EC50, HIV-HXB2D V38A mutant for Suc-ACYLACIEELIRKAQEQQEKNEAAL[dR]-NH2 (linker 2-6 via B1; reading uncertain) [peptide 34] was 19

Input Ac-ANYLALIEALIRAAQEQQEKNEAALR-NH2 [peptide 6] . Output fold change in EC50, HIV-HXB2D V38A mutant: 51

Further cases:
The reported value for Ac-ECYLACIEELIRKAQEQQEKNEAALR-NH2 (linker 2-6 via B1; reading uncertain) [peptide 37] in terms of fold change in EC50, HIV-HXB2D V38A mutant is 7

Sourced from patent US20140357577A1
